Multiple publications report pKi for UniProtKB P35968; what follows is a combined list.
pKi: −log10 of the molar value.

Before answering, review these 5 worked examples.
- COMPOUND: "NC(=O)[C@@H]1[C@H]2CC[C@H](C2)[C@@H]1Nc1nc(Nc2cnn(CCO)c2)ncc1F.NC(=O)[C@H]1[C@@H]2CC[C@@H](C2)[C@H]1Nc1nc(Nc2cnn(CCO)c2)ncc1F (mixture of isomers)"
  pKi: "5.30 to 6.00"
- COMPOUND: "Fc1cccc(-c2cnoc2-c2c[nH]c3ncc(-c4ccccn4)cc23)c1F"
  pKi: "4.90 to 6.00"
- COMPOUND: "NC(=O)[C@@H]1[C@H](Nc2nc(Nc3cnn(C4CCC4)c3)ncc2Cl)[C@H]2C=C[C@@H]1C2"
  pKi: "> 7.00"
- COMPOUND: "Clc1cccc(-c2cnoc2-c2c[nH]c3ncc(-c4cccnc4)cc23)c1Cl"
  pKi: "> 6.70"
- COMPOUND: "Cn1cc(Nc2ncc(F)c(N[C@@H]3CCC[C@@H]3C(N)=O)n2)cn1.Cn1cc(Nc2ncc(F)c(N[C@H]3CCC[C@H]3C(N)=O)n2)cn1 (mixture of isomers)"
  pKi: "< 5.30"

Exercise: Kindly state the measured pKi obtained for Cc1cnc(Nc2cnn(C)c2)nc1N[C@@H]1[C@H](C(N)=O)[C@H]2C=C[C@@H]1C2.Cc1cnc(Nc2cnn(C)c2)nc1N[C@H]1[C@@H](C(N)=O)[C@@H]2C=C[C@H]1C2 (mixture of isomers) with UniProtKB P35968.
Solution: 6.00 to 7.00

Exercise: Field: pKi (UniProtKB P35968). Entry: Cn1cc(Nc2ncc(Br)c(Nc3ccccc3C3(O)CCC3)n2)cn1
Solution: > 7.00

Exercise: Lab note: need pKi for Nc1ccc(-c2cnc3[nH]cc(-c4oncc4-c4cccc(F)c4F)c3c2)cc1 on UniProtKB P35968, anyone have it?
Solution: > 6.70

Exercise: State its pKi on UniProtKB P35968: Cn1cc(Nc2ncc(C(F)(F)F)c(N[C@@H]3CC=CC[C@@H]3C(N)=O)n2)cn1.Cn1cc(Nc2ncc(C(F)(F)F)c(N[C@H]3CC=CC[C@H]3C(N)=O)n2)cn1 (mixture of isomers)
Solution: 5.30 to 6.00

Exercise: Notebook: pull reported pKi for UniProtKB P35968, entry Cc1c(Nc2ncc(Cl)c(N[C@H]3[C@@H](C(N)=O)C[C@H]4C[C@@H]3C4(C)C)n2)cnn1C
Solution: > 7.00

Exercise: Identify the measured pKi of CC(=O)N1[C@H](C)CN(c2cc(-n3cnc(Nc4ccc(NC(=O)OCC(C)(C)C)cc4)n3)ccn2)C[C@@H]1C for UniProtKB P35968.
Solution: 6.00 to 7.00

Exercise: Requested read-out pKi, target or system UniProtKB P35968, entry CCn1cc(Nc2ncc(C(F)(F)F)c(N[C@@H]3[C@H]4CC[C@H](C4)[C@@H]3C(N)=O)n2)cn1.CCn1cc(Nc2ncc(C(F)(F)F)c(N[C@H]3[C@@H]4CC[C@@H](C4)[C@H]3C(N)=O)n2)cn1 (mixture of isomers)
Solution: > 7.00

Exercise: // lookup pKi | system=UniProtKB P35968 | key= CCn1cc(Nc2ncc(C(F)(F)F)c(N[C@@H]3[C@H](C(N)=O)[C@H]4C=C[C@@H]3C4)n2)cn1.CCn1cc(Nc2ncc(C(F)(F)F)c(N[C@H]3[C@@H](C(N)=O)[C@@H]4C=C[C@H]3C4)n2)cn1 (mixture of isomers)
Solution: > 7.00

Exercise: Short answer please: pKi, UniProtKB P35968, entry Fc1cccc(-c2cnoc2-c2c[nH]c3ncc(Cl)cc23)c1F
Solution: 6.00 to 6.70

Exercise: // fetch UniProtKB P35968 pKi for CN(C)c1ccnc(-c2cnc3[nH]cc(-c4oncc4-c4cccc(F)c4F)c3c2)c1
Solution: > 6.70

Exercise: Record Fc1cccc(-c2cnoc2-c2c[nH]c3ncc(-c4ccc(CN5CCCC5)cc4)cc23)c1F : what is its pKi with UniProtKB P35968?
Solution: > 6.70

Exercise: Reported pKi for UniProtKB P35968, given Cc1nn(C)c(C)c1Nc1ncc(Br)c(N[C@H]2[C@@H](C(N)=O)[C@@H]3C=C[C@H]2C3)n1 ?
Solution: 6.00 to 7.00

Exercise: Record lookup: for UniProtKB P35968, what pKi belongs to c1cnc2[nH]cc(-c3oncc3C3CCCCC3)c2c1 ?
Solution: 4.90 to 6.00

Exercise: Record lookup: for UniProtKB P35968, what pKi belongs to CC1(C)[C@H]2C[C@H](C(N)=O)[C@H](Nc3nc(Nc4cnn(CCc5ccccc5)c4)ncc3Cl)[C@@H]1C2 ?
Solution: > 7.00

Exercise: Return pKi measured with UniProtKB P35968 given this compound: CC(O)Cn1cc(Nc2ncc(C(F)(F)F)c(NC3C4CCC(C4)C3C(N)=O)n2)cn1 (mixture of isomers)
Solution: 6.00 to 7.00
